Target: T1, human C5 R885C-mmh (human, UniProt P01031 19-1676)
T1 construct: also called human C5 variant R885C
Assay: SPR, mAb captured via anti-hFc, 37C
measured_endpoint: 100 nM Human C5 R885C-mmh Bound (RU)
// units = RU; emit number, no label

q: Please give the measured 100 nM Human C5 R885C-mmh Bound (RU) for this binder: H4H11686N (antibody, V domains shown, also called H2M11686N) VH: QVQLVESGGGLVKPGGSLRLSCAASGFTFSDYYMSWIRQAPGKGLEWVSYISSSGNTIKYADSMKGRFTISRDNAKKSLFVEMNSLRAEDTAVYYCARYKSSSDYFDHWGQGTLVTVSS VL: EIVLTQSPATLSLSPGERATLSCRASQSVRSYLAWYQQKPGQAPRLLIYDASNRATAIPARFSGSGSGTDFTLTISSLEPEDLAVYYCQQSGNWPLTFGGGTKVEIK
a: 69

q: Can you share its 100 nM Human C5 R885C-mmh Bound (RU)? I mean this binder: H4H12161P (antibody, human IgG4, V domains shown, Human IgG4 Fc with S108P hinge mutation (H4H)) VH: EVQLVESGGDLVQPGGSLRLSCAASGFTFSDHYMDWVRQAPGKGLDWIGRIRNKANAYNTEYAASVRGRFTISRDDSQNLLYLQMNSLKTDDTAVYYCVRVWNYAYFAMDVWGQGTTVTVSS VL: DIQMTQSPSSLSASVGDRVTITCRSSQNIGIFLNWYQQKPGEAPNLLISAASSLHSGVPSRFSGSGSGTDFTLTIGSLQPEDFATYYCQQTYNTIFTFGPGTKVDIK
a: 49

q: Which 100 nM Human C5 R885C-mmh Bound (RU) is listed for H4H11683N (antibody, V domains shown, also called H2M11683N) VH: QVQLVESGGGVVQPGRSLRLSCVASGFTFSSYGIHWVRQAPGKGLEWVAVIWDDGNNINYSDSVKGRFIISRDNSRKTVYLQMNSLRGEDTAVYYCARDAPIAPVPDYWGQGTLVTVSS VL: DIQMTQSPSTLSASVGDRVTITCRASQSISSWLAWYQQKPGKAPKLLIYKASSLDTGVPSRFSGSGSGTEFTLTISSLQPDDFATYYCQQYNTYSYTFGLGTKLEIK ?
a: 78
